# study system: human FcγRIIa R extracellular domain (human)
# method summary: SPR (Biacore 8K+), captured antibody, 1:1 Langmuir model
endpoint: pKd
Numbers only, as −log10 of the molar value.

// pKd (human FcγRIIa R extracellular domain (human)) for H240-GASDALIE/L73-k0 (antibody) = 6.79
